Molecular target: Peroxisome proliferator-activated receptor alpha (Homo sapiens)
Sequence (Q07869 whole entry): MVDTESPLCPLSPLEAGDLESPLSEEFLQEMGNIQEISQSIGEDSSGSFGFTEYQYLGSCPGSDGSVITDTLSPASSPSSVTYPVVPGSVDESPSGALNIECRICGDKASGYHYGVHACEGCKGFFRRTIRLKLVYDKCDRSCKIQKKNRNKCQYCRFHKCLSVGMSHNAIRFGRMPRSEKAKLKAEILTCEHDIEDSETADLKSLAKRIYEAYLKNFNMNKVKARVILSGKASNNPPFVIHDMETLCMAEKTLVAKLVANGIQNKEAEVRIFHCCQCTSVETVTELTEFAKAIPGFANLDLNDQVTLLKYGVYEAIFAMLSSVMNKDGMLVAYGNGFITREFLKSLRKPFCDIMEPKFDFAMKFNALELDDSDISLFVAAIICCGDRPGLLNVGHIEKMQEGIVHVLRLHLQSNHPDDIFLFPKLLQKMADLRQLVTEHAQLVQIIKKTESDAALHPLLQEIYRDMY
READOUT_LABEL: IC50 (µM)
Give the value, in units of µM, as a plain number.

Study these solved cases before continuing.
CCCc1cc(Oc2ccc(Cl)cc2)ccc1OCCCOc1ccc2c(c1)OC(CC)(C(=O)O)CC2 (centres undefined) :: 4
CCCc1cc(Oc2ccccc2)ccc1OCCCOc1ccc2c(c1)OC(CC(C)C)(C(=O)O)CC2 (centres undefined) :: 3
CCCc1cc(Oc2ccccc2)ccc1OCCCOc1ccc2c(c1)OC(C)(C(=O)O)CC2 (centres undefined) :: 1.9

input: Report measured IC50 on Peroxisome proliferator-activated receptor alpha (Homo sapiens); entry: CCCc1cc(Oc2ccccc2)ccc1OCCCOc1ccc2c(c1)OC(C(=O)O)CC2 (centres undefined)
output: 1.5

---

IC50 values recorded for Peroxisome proliferator-activated receptor delta (Homo sapiens, UniProt Q03181)

CCCc1cc(Oc2ccccc2)ccc1OCCCOc1ccc2c(c1)OC(CC)(C(=O)O)CC2 (stereo unspecified) :: > 50 µM

Now look at this entry.
input: Return reported IC50. Input compound: CCCc1cc(Oc2ccccc2)ccc1OCCCCOc1ccc2c(c1)OC(C)(C(=O)O)CC2 (stereo unspecified)
output: > 50 µM

---

Test: Bioavailability in rat (dose 2.0 mg/kg p.o.)
Type: ADME, organism-based
Details: in vivo, po
READOUT_LABEL: bioavailability
The number alone won't do; follow it with the unit.

input: Return reported bioavailability. Input compound: CC[C@]1(C(=O)O)CCc2ccc(OCCCOc3ccc(Oc4ccc(F)cc4)cc3Cl)cc2O1
output: 48%

---

IC50 values recorded for Peroxisome proliferator-activated receptor delta (Homo sapiens)

Study these solved cases before continuing.
CCCc1cc(Oc2ccc(Cl)cc2)ccc1OCCCOc1ccc2c(c1)OC(CC)(C(=O)O)CC2 (centres undefined) :: > 50 µM
CCCc1cc(Oc2ccccc2)ccc1OCCCOc1ccc2c(c1)OC(CC(C)C)(C(=O)O)CC2 (centres undefined) :: 5 µM

input: Report measured IC50 on Peroxisome proliferator-activated receptor delta (Homo sapiens); entry: CCCc1cc(Oc2ccc(S(C)(=O)=O)cc2)ccc1OCCCOc1ccc2c(c1)OC(CC)(C(=O)O)CC2 (centres undefined)
output: > 50 µM

input: Report measured IC50 on Peroxisome proliferator-activated receptor delta (Homo sapiens); entry: CCCc1cc(Oc2ccc(OC)cc2)ccc1OCCCOc1ccc2c(c1)OC(CC)(C(=O)O)CC2 (centres undefined)
output: > 50 µM

input: Report measured IC50 on Peroxisome proliferator-activated receptor delta (Homo sapiens); entry: CCC1(C(=O)O)CCc2ccc(OCCCOc3ccc(Oc4ccccc4)cc3F)cc2O1 (centres undefined)
output: > 50 µM

input: Report measured IC50 on Peroxisome proliferator-activated receptor delta (Homo sapiens); entry: CCCc1cc(Oc2ccccc2)ccc1OCCCCOc1ccc2c(c1)CCC(C)(C(=O)O)O2 (centres undefined)
output: > 50 µM

input: Report measured IC50 on Peroxisome proliferator-activated receptor delta (Homo sapiens); entry: CC[C@@]1(C(=O)O)CCc2ccc(OCCCOc3ccc(Oc4ccc(F)cc4)cc3Cl)cc2O1
output: > 50 µM

---

Target: Peroxisome proliferator-activated receptor delta (Homo sapiens, UniProt Q03181)
Sequence (Q03181 whole entry): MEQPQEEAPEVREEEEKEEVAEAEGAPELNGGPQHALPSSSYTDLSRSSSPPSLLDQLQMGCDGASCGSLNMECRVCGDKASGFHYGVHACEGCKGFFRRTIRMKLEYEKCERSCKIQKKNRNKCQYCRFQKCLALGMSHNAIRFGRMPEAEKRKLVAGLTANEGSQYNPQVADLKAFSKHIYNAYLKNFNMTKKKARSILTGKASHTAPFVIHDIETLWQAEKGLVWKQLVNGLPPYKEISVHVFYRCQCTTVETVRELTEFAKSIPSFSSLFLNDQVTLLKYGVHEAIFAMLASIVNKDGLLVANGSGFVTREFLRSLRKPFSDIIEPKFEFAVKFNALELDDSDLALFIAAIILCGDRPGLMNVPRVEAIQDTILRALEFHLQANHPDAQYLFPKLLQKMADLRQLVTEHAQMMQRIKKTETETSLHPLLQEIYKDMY
pIC50: −log10 of the molar value.
Attribute: pIC50

CCCc1cc(Oc2ccccc2)ccc1OCCCOc1ccc2c(c1)OC(C)(C(=O)O)CC2 (configuration not stated) :: < 4.30
CCCc1cc(Oc2ccccc2)ccc1OCCCCOc1ccc2c(c1)OC(C(=O)O)CC2 (configuration not stated) :: < 4.82
CCCc1cc(Oc2ccccc2)ccc1OCCCOc1ccc2c(c1)CCC(C(=O)O)O2 (configuration not stated) :: < 4.82
CCCc1cc(Oc2ccccc2)ccc1OCCCOc1ccc2c(c1)CCC(C)(C(=O)O)O2 (configuration not stated) :: < 4.30
CCC1(C(=O)O)CCc2ccc(OCCCOc3ccc(Oc4ccccc4)cc3)cc2O1 (configuration not stated) :: < 4.30

input: Return reported pIC50. Input compound: CC[C@]1(C(=O)O)CCc2ccc(OCCCOc3ccc(Oc4ccc(F)cc4)cc3Cl)cc2O1
output: < 4.82

input: Return reported pIC50. Input compound: CCCc1cc(Oc2ccccc2)ccc1OCCCOc1ccc2c(c1)OC(C(=O)O)CC2 (configuration not stated)
output: 6.77

input: Return reported pIC50. Input compound: CCCc1cc(Oc2ccccc2)ccc1OCCCCOc1ccc2c(c1)CCC(C(=O)O)O2 (configuration not stated)
output: < 4.30

input: Return reported pIC50. Input compound: CCC1(C(=O)O)CCc2ccc(OCCCOc3ccc(Oc4ccccc4)cc3Cl)cc2O1 (configuration not stated)
output: < 4.82

input: Return reported pIC50. Input compound: CCCc1cc(Oc2ccccc2)ccc1OCCCOc1ccc2c(c1)OC(CCC)(C(=O)O)CC2 (configuration not stated)
output: < 4.30

input: Return reported pIC50. Input compound: CC1(C(=O)O)CCc2ccc(OCCCOc3ccc(Oc4ccccc4)cc3Cl)cc2O1 (configuration not stated)
output: < 4.82

input: Return reported pIC50. Input compound: CCCc1cc(Oc2ccc(F)cc2)ccc1OCCCOc1ccc2c(c1)OC(CC)(C(=O)O)CC2 (configuration not stated)
output: < 4.30
